Tested on: SNU-484
Assay: MTT assay, irinotecan with or without hydrochloride compound of Formula 1
Type: cell-based
Settings: Homo sapiens, 120 h, 5 days, irinotecan alone or with 1 μM hydrochloride compound of Formula 1
pIC50: −log10 of the molar value. Where a name gives a salt, the structure may show the parent alone.
parameter: pIC50

>>> measured_result("CCc1c2c(nc3ccc(OC(=O)N4CCC(N5CCCCC5)CC4)cc13)-c1cc3c(c(=O)n1C2)COC(=O)[C@]3(O)CC [Comparative Example 1, Irinotecan hydrochloride]")
6.10

###

Tested on: SNU-638
Assay: MTT assay, irinotecan with or without hydrochloride compound of Formula 1
Type: cell-based
Details: Homo sapiens, 120 h, 5 days, irinotecan alone or with 1 μM hydrochloride compound of Formula 1
pIC50: −log10 of the molar value. Counter-ions that a name gives are not always drawn.
parameter: pIC50

>>> measured_result("CCc1c2c(nc3ccc(OC(=O)N4CCC(N5CCCCC5)CC4)cc13)-c1cc3c(c(=O)n1C2)COC(=O)[C@]3(O)CC [Comparative Example 1, Irinotecan hydrochloride]")
6.18

// provenance: patent US20250120970A1
